STUDY_TARGET: Human GLP-1 receptor (Homo sapiens, UniProt P43220)
Construct: The full-length cDNA was cloned in pcDNA3.1(+); expressed in transfected cells
Sequence (P43220 24-463): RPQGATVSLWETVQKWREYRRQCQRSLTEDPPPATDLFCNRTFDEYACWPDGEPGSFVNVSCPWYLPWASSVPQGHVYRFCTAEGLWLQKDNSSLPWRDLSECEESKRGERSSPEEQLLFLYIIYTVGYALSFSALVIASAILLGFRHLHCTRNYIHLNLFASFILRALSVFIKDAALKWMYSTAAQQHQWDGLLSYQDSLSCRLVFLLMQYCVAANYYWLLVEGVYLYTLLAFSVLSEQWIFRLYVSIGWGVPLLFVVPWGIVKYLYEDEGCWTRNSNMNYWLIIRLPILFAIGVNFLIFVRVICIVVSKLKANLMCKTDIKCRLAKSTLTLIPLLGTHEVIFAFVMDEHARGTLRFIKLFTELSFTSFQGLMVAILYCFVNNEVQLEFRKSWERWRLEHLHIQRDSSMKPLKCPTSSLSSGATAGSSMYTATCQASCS
Type: cell-based
CONDITION_LABEL: 100 nM test compound
QUANTITY_MEASURED: Human GLP-1 R activity (cAMP release), % activity with respect to control

MOLECULE	READING
CCc1cc(OC)ccc1-c1ccc(CC(NC(=O)[C@H](CC(=O)O)NC(=O)[C@H](CO)NC(=O)[C@@H](NC(=O)C(C)(Cc2ccccc2F)NC(=O)[C@@H](NC(=O)CNC(=O)[C@H](CCC(N)=O)NC(=O)C(C)(C)NC(=O)[C@@H](N)Cc2c[nH]cn2)[C@@H](C)O)[C@@H](C)O)C(=O)NC(Cc2ccc(-c3ccccc3C)nc2)C(N)=O)cc1 (single isomer, unassigned)	99 ± 0.06%
CCc1cc(OC)ccc1-c1ccc(CC(NC(=O)[C@H](CC(=O)O)NC(=O)[C@H](CO)NC(=O)[C@@H](NC(=O)[C@H](Cc2ccccc2)NC(=O)[C@@H](NC(=O)CNC(=O)[C@H](CCC(N)=O)NC(=O)C2(NC(=O)[C@@H](N)Cc3c[nH]cn3)CC2)[C@@H](C)O)[C@@H](C)O)C(=O)NC(Cc2ccc(-c3ccccc3C)nc2)C(N)=O)cc1 (single isomer, unassigned)	99 ± 0.06%
CCc1cc(OC)ccc1-c1ccc(CC(NC(=O)[C@H](CC(=O)O)NC(=O)[C@H](CO)NC(=O)[C@@H](NC(=O)[C@H](Cc2ccccc2)NC(=O)[C@@H](NC(=O)CNC(=O)[C@H](CCC(N)=O)NC(=O)C(C)(C)NC(=O)[C@@H](N)Cc2c[nH]cn2)[C@@H](C)O)[C@@H](C)O)C(=O)NC(Cc2ccc(-c3ccccc3C)cc2)C(N)=O)cc1 (single isomer, unassigned)	98 ± 0.18%
CCc1cc(OC)ccc1-c1ccc(CC(NC(=O)[C@H](CC(=O)O)NC(=O)[C@H](CO)NC(=O)[C@@H](NC(=O)C(C)(Cc2ccccc2F)NC(=O)[C@@H](NC(=O)CNC(=O)[C@H](CCC(N)=O)NC(=O)C(C)(C)NC(=O)[C@@H](N)Cc2c[nH]cn2)[C@@H](C)O)[C@@H](C)O)C(=O)NC(Cc2ccc(-c3ccccc3F)cc2)C(N)=O)cc1 (single isomer, unassigned)	99 ± 0.41%
CCc1cc(OC)ccc1-c1ccc(CC(NC(=O)[C@H](CC(=O)O)NC(=O)[C@H](CO)NC(=O)[C@@H](NC(=O)[C@H](Cc2ccccc2)NC(=O)[C@@H](NC(=O)CNC(=O)[C@H](CCC(N)=O)NC(=O)C2(NC(=O)[C@@H](N)Cc3c[nH]cn3)CC2)[C@@H](C)O)[C@@H](C)O)C(=O)NC(Cc2ccc(-c3ccccc3C(F)(F)F)cc2)C(N)=O)cc1 (single isomer, unassigned)	99 ± 0.04%
